target: T1, FcRn-p3 fusion protein (human, UniProt P55899 24-297; P61769 21-119); experiment: phage ELISA pH6 (est.)
T1 construct: baculovirus expressed; coated on ELISA wells; not shown: amino terminal part of bacteriophage p3 protein and CVDE protein
T1 sequence (P55899 24-297, chain 1 of 2): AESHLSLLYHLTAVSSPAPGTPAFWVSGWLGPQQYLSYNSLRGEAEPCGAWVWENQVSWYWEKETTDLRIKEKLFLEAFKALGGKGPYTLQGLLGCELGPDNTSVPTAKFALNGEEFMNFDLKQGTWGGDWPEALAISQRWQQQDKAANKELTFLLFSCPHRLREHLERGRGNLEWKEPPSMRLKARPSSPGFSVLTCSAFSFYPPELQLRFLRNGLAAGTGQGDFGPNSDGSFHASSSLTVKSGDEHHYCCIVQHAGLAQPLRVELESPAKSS
T1 sequence (P61769 21-119, chain 2 of 2): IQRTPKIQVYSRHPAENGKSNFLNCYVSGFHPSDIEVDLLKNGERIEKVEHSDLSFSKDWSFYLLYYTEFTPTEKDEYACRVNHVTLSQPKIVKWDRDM
MEASURED ENDPOINT: Ratio/FWT (fold)
Numbers only here, please. The scale is fold.

Would you please look over these solved cases?
[
  {
    "BINDER": "C4A_28 (other, EU numbering) CPPCPAPELLGGPSVFLFPPKPKDTLMISRTPEVTCVVEDVSHEDPEVKFNWYVDGVEVHNAKTKPREEQYNSTYRVVSVLTVLHQDWLNGKEYKCKVSNKALPAPIEKTISKAKGQPREPQVYTLPPSRDELTKNQVSLTCLVKGFYPSDIVVEWESNGQPENNYKTTPPVLDSDGSFFLYSKLTVDKSRWQQGNVFSCSVMHEALHYHYTQKSLSLSPGK",
    "UNIT SYMBOL": "fold",
    "Ratio/FWT": 10.8
  },
  {
    "BINDER": "T3A_01 (other, EU numbering) CPPCPAPELLGGPSVFLFPPKPKDTLMISRTPEVTCVVEDVSHEDPEVKFNWYVDGVEVHNAKTKPREEQYNSTYRVVSVLPVLHQDWLNGKEYKCKVSNKALPAPIEKTISKAKGQPREPQVYTLPPSRDELTKNQVSLTCLVKGFYPSDIVVEWESNGQPENNYKTTPPVLDSDGSFFLYSKLTVDKSRWQQGTVFSCSVMHEALHNHYTQKSLSLSPGK",
    "UNIT SYMBOL": "fold",
    "Ratio/FWT": 7.8
  }
]

Read the next record carefully.
Note to self: Ratio/FWT recorded for T4A_45 (other, EU numbering) CPPCPAPELLGGPSVFLFPPKPKDTLMISRTPEVTCVVEDVSHEDPEVKFNWYVDGVEVHNAKTKPREEQYNSTYRVVSVLTVPHQDWLNGKEYKCKVSNKALPAPIEKTISKAKGQPREPQVYTLPPSRDELTKNQVSLTCLVKGFYPSDIAVEWESNGQPENNYKTTPLVLDSDGSFFLYSKLTVDKSRWQQGNVFSCSVMHEALHSHYTQKSLSLSPGK was 8.7

Reference source: patent USRE46585
